Assay: DUSP6 inhibitors restoring Erk phosphorylation by chemical complementation, primary imaging in DUSP6-transfected HeLa (AID 609)
Settings: HeLa MKP-3 transfected, phospho-Erk imaging KS statistic; measured here: nuclear pErk red intensity z-score; at 10 µM; stronger effect = higher value; cells stimulated with TPA for 15 min

MOLECULE: NS(=O)(=O)c1cc2c(cc1Cl)NC(CSCc1ccccc1)=NS2(=O)=O
z-score: -0.561
//
MOLECULE: CCOc1ccc(/C(O)=C2/C(=O)C(=O)N(CCN(CC)CC)C2c2ccco2)cc1 (stereo unspecified)
z-score: -0.475
//
MOLECULE: CCCc1nc(N2CCOCC2)c(C#N)c2c1CCCC2
z-score: -0.0343
//
MOLECULE: COc1cccc(C2C(C(=O)c3cccs3)=C(O)C(=O)N2c2cc(C)on2)c1 (stereo unspecified)
z-score: 1.95
//
MOLECULE: CCO/C([O-])=N/c1c[n+](N2CCOCC2)no1
z-score: -1.04
//
MOLECULE: COc1cccc(-c2nnc3sc(-c4ccccc4)nn23)c1
z-score: 2
//
MOLECULE: CC[N+](C)(C)Cc1ccccc1Br
z-score: 0.336
//
MOLECULE: COc1ccc(CCn2c(C)ccc2C)cc1OC
z-score: -0.301
//
MOLECULE: Cc1c(Cl)c(C(F)(F)F)nn1CC(=O)N1CCSCC1
z-score: 1.29
//
MOLECULE: COc1cccc(Cn2c(Oc3ccccc3)nc3c2c(=O)n(C)c(=O)n3C)c1
z-score: 0.142
//
MOLECULE: Cc1nnc2n(-c3ccccc3)c(=O)c3c4c(sc3n12)CCCC4
z-score: 0.377
//
MOLECULE: Cn1c(=O)c2[nH]cnc2n(C)c1=O
z-score: -0.896
//
MOLECULE: COc1ccc(OC)c(C2C(C#N)=C(N)Oc3cc(C)[nH]c(=O)c32)c1 (stereo unspecified)
z-score: -0.529
//
MOLECULE: CC1(C)Cc2c(sc(NC(=O)c3ccc(Br)o3)c2C#N)CO1
z-score: -0.494
//
MOLECULE: CCN(CCCCOC(=O)c1ccc(OC)c(OC)c1)C(C)Cc1ccc(OC)cc1 (stereo unspecified)
z-score: -0.515
//
MOLECULE: Cc1ccc(NC(=O)CSC2=C(C#N)C(c3ccco3)C3=C(CCCC3=O)N2)cc1 (stereo unspecified)
z-score: -0.0699
//
MOLECULE: CCOc1ccc(C2C(C(=O)c3ccc(C)o3)=C(O)C(=O)N2CCN2CCOCC2)cc1OC (stereo unspecified)
z-score: 0.737
//
MOLECULE: Cc1cccc(COc2ccc(/C(O)=C3\C(=O)C(=O)N(CCN(C)C)C3c3ccncc3)cc2)c1 (stereo unspecified)
z-score: -0.252
//
MOLECULE: ONC(=Nc1ccccc1)C(=Nc1ccccc1)NO
z-score: 0.663
//
MOLECULE: OCCN(CCO)c1ncnc2c1sc1nc(N3CCOCC3)c3c(c12)CCCC3
z-score: -0.129
//
MOLECULE: CCN(CC)CCCn1c(C)cc2c(c1=O)C(c1ccccc1)C(C#N)=C(N)O2 (stereo unspecified)
z-score: 1.28
//
MOLECULE: C=CCc1c(C)c(C#N)c2nc3ccccc3n2c1N1CCN(C)CC1
z-score: -1.36
//
MOLECULE: N#CCCSc1nc(N2CCOCC2)c2c(c1C#N)CCCC2
z-score: -0.37
//
MOLECULE: COc1ccc(-c2nn3c(C4CCCCC4)nnc3s2)cc1OC
z-score: 0.338
//
MOLECULE: Cc1ccccc1C(=O)c1ccc2c(c1)n(C)c(=O)n2C
z-score: 1.32
//
MOLECULE: COc1cc(C2NC(=O)NC(C)=C2C(=O)Nc2cccc(C)c2C)cc(OC)c1OC (stereo unspecified)
z-score: -0.592
//
MOLECULE: COC(=O)c1cc(Br)c(=O)n(Cc2ccc3c(c2)OCO3)c1
z-score: 1.32
//
MOLECULE: COC(=O)c1cc(=O)n2c(-c3ccc(OC)cc3)csc2n1
z-score: -1.12
//
MOLECULE: CN1CCc2c(sc3ncn4nc(-c5ccccc5O)nc4c23)C1
z-score: 0.576
//
MOLECULE: Oc1ccc(C=Nc2ccc3ncccc3c2)c(O)c1
z-score: -0.981
//
MOLECULE: CCCCCC(=O)N1CC2(C)CN(C(=O)CCCCC)CC(C)(C1)C2=O
z-score: 0.65

* * *

Test: inhibitors of TNFa-induced NFkB p65 translocation, primary screen, imaging, HUVEC, MLSMR starter and 10KST1 sets (AID 438);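 further: compound added about 3h40 before a 20 min TNFalpha stimulation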
Settings: HUVEC TNFa-induced p65 nuclear translocation; measured here: nuclei count (cytotoxicity indicator), at 2.08 µM
Note to self: values exactly at 400 are Met. So cell count at or above 400 is Met, below is Not met.

MOLECULE: O=C(Nc1ccc(Cl)cn1)C1CCCN1S(=O)(=O)c1ccccc1 (stereo not given)
ASSIGNED LABEL: Not met

MOLECULE: COC(=O)C1=C(C)N=C2SC(C)C(=O)N2C1c1cccs1 (stereo not given)
ASSIGNED LABEL: Not met

MOLECULE: COc1ccc(C2C(C#N)=C(SC)NC3=C2C(=O)CC(C)(C)C3)cc1 (stereo not given)
ASSIGNED LABEL: Not met

MOLECULE: c1ccc2c(c1)[nH]c1c(N3CCC4(CC3)OCCO4)ncnc12
ASSIGNED LABEL: Met

MOLECULE: O=C1NC2c3ccccc3C(=O)N2c2c1cnn2-c1ccccc1 (stereo not given)
ASSIGNED LABEL: Met

MOLECULE: COc1ccc(C(CC(=O)O)NC(=O)OC(C)(C)C)cc1 (stereo not given)
ASSIGNED LABEL: Not met

MOLECULE: CCSc1nc(O)c(C2OC(=O)c3c2ccc(OC)c3OC)c(=O)n1-c1ccccc1 (stereo not given)
ASSIGNED LABEL: Met

MOLECULE: OC(CCN1CCCCC1)(c1ccccc1)c1ccccc1
ASSIGNED LABEL: Met

MOLECULE: COC(=O)c1n[nH]c2ccccc12
ASSIGNED LABEL: Not met

MOLECULE: Cc1nc(SCC(N)=O)[nH]c(=O)c1Cc1ccc(OC(C)C)cc1
ASSIGNED LABEL: Met

* * *

Catalogue of compounds with associated slope
Molecular target: Alpha-2C adrenergic receptor (Homo sapiens) (UniProt P18825)
Sequence (P18825 whole entry, looked up): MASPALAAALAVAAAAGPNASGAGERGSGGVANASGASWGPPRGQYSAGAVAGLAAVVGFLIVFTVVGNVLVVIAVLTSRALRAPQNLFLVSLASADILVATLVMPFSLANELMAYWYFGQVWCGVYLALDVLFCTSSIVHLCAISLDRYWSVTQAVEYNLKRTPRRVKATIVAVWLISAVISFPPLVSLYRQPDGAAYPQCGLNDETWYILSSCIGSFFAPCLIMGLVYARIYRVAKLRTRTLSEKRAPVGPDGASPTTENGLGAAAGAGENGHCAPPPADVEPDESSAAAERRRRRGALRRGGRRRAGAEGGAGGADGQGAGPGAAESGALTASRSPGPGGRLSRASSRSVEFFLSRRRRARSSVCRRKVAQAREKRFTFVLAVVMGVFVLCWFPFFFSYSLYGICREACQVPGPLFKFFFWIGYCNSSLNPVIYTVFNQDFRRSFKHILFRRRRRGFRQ
Assay: modulators of alpha2C/GIRK thallium flux, primary screen, cell-based, HEK293 alpha2C/GIRK1/2 (AID 624);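 further: slope of fluorescence ratio to pre-addition baseline per second over 15 to 24 s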
Settings: thallium flux BTC fluorescence, at 10 µM, actives lie on both sides

COMPOUND: COc1cc(/C=N/O)ccc1OCc1ccc(C(=O)O)cc1
slope: 0.00492
//
COMPOUND: COc1cccc(C2C(C(=O)c3cc4ccccc4o3)=C(O)C(=O)N2CCN(C)C)c1OC (centres undefined)
slope: 0.0034
//
COMPOUND: Clc1ccc(-c2nn3c(-c4cccc(Cl)c4)nnc3s2)cc1
slope: 0.00631
//
COMPOUND: N/C(CCN1CCOCC1)=N/O
slope: 0.00517

* * *

Test: DUSP6 inhibitors restoring Erk phosphorylation by chemical complementation, primary imaging in DUSP6-transfected HeLa (AID 609)
Settings: HeLa MKP-3 transfected, phospho-Erk imaging KS statistic; measured here: cell density z-score; at 10 µM; cells stimulated with TPA for 15 min
MEASURED QUANTITY: z-score

COMPOUND: COCCCNC(=O)C(C#N)c1nc2ccccc2nc1N1CCCC1 (centres undefined)
DATA VALUE: 1.4
//
COMPOUND: CC(=O)O[C@H]1C(=O)[C@]2(C)[C@H]([C@H](OC(=O)c3ccccc3)[C@]3(O)C[C@H](OC(=O)[C@H](O)[C@@H](NC(=O)c4ccccc4)c4ccccc4)C(C)=C1C3(C)C)[C@]1(OC(C)=O)CO[C@@H]1C[C@@H]2O
DATA VALUE: 0.529
//
COMPOUND: CCOc1cccc(C2C(C#N)=C(N)Oc3cc(C)oc(=O)c32)c1OCC (centres undefined)
DATA VALUE: 0.354
//
COMPOUND: CN(C)c1nc2n(c(=S)n1)CCS2
DATA VALUE: -0.355

* * *

Assay: inhibitors of mutant huntingtin aggregation, primary screen, imaging, exon1htt(103Q)mCFP cells, high-content imaging (AID 483);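 further: compound exposure lasted 3 days before fixation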
Details: exon1htt(103Q)mCFP cell line, aggregate imaging, at 2 µM; stronger effect = higher value
Items are presented alongside their recorded inhibition of aggregation.

COMPOUND: O=C(O)/C=C/c1ccc(O)c(O)c1
UNIT TEXT: %
inhibition of aggregation: 8.3
//
COMPOUND: CCCn1c(=O)c2[nH]c(C3CCCC3)nc2n(CCC)c1=O
UNIT TEXT: %
inhibition of aggregation: 26
//
COMPOUND: Cn1c(=O)[nH]c(=O)c2c1nc(N(CCO)Cc1ccccc1)n2Cc1ccccc1Cl
UNIT TEXT: %
inhibition of aggregation: -19.3
//
COMPOUND: CCC1(c2ccccc2)C(=O)NCNC1=O
UNIT TEXT: %
inhibition of aggregation: -10.2
//
COMPOUND: CN1CC=C2C(C#N)=C(N)C(C#N)(C#N)[C@H](c3cccc(Cl)c3)C2C1 (stereo partly drawn)
UNIT TEXT: %
inhibition of aggregation: -38.1
//
COMPOUND: COC(=O)c1ccc(-c2sc3nc(N4CCOCC4)c4c(c3c2N)CCCC4)o1
UNIT TEXT: %
inhibition of aggregation: -43
//
COMPOUND: COCCOC(=O)C1=C(C)NC(C)=C(C(=O)OC(C)C)C1c1cccc([N+](=O)[O-])c1 (stereo not drawn)
UNIT TEXT: %
inhibition of aggregation: -29.1
//
COMPOUND: OCCN1CCN(CCCN2c3ccccc3Sc3ccc(C(F)(F)F)cc32)CC1
UNIT TEXT: %
inhibition of aggregation: 4.9
//
COMPOUND: N#Cc1nc(-c2cccs2)oc1NCCc1ccccc1
UNIT TEXT: %
inhibition of aggregation: 2.8
//
COMPOUND: Cc1cn2c(-c3ccncc3)nnc2s1
UNIT TEXT: %
inhibition of aggregation: 5.7
//
COMPOUND: C=CCn1c(=S)[nH]c2nc3c(cc2c1=O)COC(C)(C)C3
UNIT TEXT: %
inhibition of aggregation: 0.9
//
COMPOUND: C[C@@H]1CCC[C@H](C)N1NC(=O)c1ccc(Cl)c(S(N)(=O)=O)c1
UNIT TEXT: %
inhibition of aggregation: 0.7
//
COMPOUND: CN1C(C(=O)Nc2ccccn2)=C(O)c2ccccc2S1(=O)=O
UNIT TEXT: %
inhibition of aggregation: -13.6
//
COMPOUND: Cc1ccc(C(=O)/C=C/Nc2cccc(O)c2)cc1
UNIT TEXT: %
inhibition of aggregation: -12
//
COMPOUND: CCOC(=O)c1ccc(N2C(=O)CC(Sc3nnc(C)s3)C2=O)cc1 (stereo not drawn)
UNIT TEXT: %
inhibition of aggregation: -10.1
//
COMPOUND: CN1CCN(CCCN2c3ccccc3Sc3ccc(C(F)(F)F)cc32)CC1
UNIT TEXT: %
inhibition of aggregation: -9.7
//
COMPOUND: C[C@]12CCC(=O)C=C1CC[C@@H]1[C@@H]2[C@@H](O)C[C@@]2(C)[C@H]1CC[C@]2(O)C(=O)CO
UNIT TEXT: %
inhibition of aggregation: -3.8
//
COMPOUND: CN1CCN2c3ccccc3Cc3ccccc3C2C1 (stereo not drawn)
UNIT TEXT: %
inhibition of aggregation: 11.1
//
COMPOUND: O=C(CCCN1C(=O)c2ccccc2C1=O)N1CCC(c2ccccc2)C1 (stereo not drawn)
UNIT TEXT: %
inhibition of aggregation: -32.2
//
COMPOUND: CCCCc1nc2n[nH]c(N)c2c2c1CCCC2
UNIT TEXT: %
inhibition of aggregation: -112
//
COMPOUND: O=C(O)c1cc(-c2ccccc2)nc2ccccc12
UNIT TEXT: %
inhibition of aggregation: -4.1
//
COMPOUND: CC(=O)Nc1nnc(S(N)(=O)=O)s1
UNIT TEXT: %
inhibition of aggregation: -0.3
//
COMPOUND: CN(C)C(CN1C(=O)C2CC=CCC2C1=O)c1cn(C)c2ccccc12 (stereo not drawn)
UNIT TEXT: %
inhibition of aggregation: 12.2
//
COMPOUND: CC(=O)O[C@]1(C(C)=O)CC[C@H]2[C@@H]3C[C@H](C)C4=CC(=O)CC[C@]4(C)[C@H]3CC[C@@]21C
UNIT TEXT: %
inhibition of aggregation: 0.3
//
COMPOUND: CC(CN1CCN(C)CC1)OC(=O)c1ccc(Cl)cc1Cl (stereo not drawn)
UNIT TEXT: %
inhibition of aggregation: -4.3
//
COMPOUND: Nc1ncnc2c1ncn2[C@@H]1O[C@H](CO)[C@@H](O)[C@H]1O
UNIT TEXT: %
inhibition of aggregation: -15.3
//
COMPOUND: Cc1cccc(COc2ccc(/C(O)=C3\C(=O)C(=O)N(CCN(C)C)C3c3ccncc3)cc2)c1 (stereo not drawn)
UNIT TEXT: %
inhibition of aggregation: -20.7
//
COMPOUND: C/C(=N\O)C(=O)NCCCNCCCN(C)C
UNIT TEXT: %
inhibition of aggregation: -14.3

Origin of the recorded values: PubChem BioAssay
